// provenance: PubChem BioAssay

assay: binders from COS7 lysate, DM2A8 probe, primary screen, torsin A project, cell lysate, small-molecule microarray, fluorescence 635/667 (AID 1065); settings: higher = more signal, COS7 lysate expressing mutant human TOR1A
measured-metric: composite z-score

Past entries and their recorded results:
CN(C)C(=O)[C@@]1(CCC(=O)OC(C)(C)C)N=C(c2ccc(OCCCO)cc2)O[C@H]1c1ccccc1CN=[N+]=[N-]
1.01
CCOC(=O)C[C@H]1[C@H](OC(=O)c2ccccc2-c2ccccc2)[C@@H](NC(=O)c2ccc3ccccc3n2)c2cc(OCCCO)ccc2N1C(=O)c1ccccc1
0.491
COc1cc(NN2C(C(O)c3ccc(I)cc3)C=CC3C(=O)N(c4ccccc4)C(=O)C32)cc(OC)c1OC (centres undefined)
0.808
COc1cc2c(cc1O)C(c1cccs1)N(Cc1sc3ccccc3c1Cl)CC2 (centres undefined)
1.14
CCCCCN1CC=CC23O[C@@H]4C=CCOC(=O)[C@@H]4[C@H]2C(=O)N(CCO)[C@@H]3C1=O (some centres undefined)
0.483

Attention now shifts to the item below.
Measured composite z-score, C=C(COC)/C(=C/C[C@@H](OC(C)=O)c1ccc(CO)o1)c1cc(C(=O)OC)ccc1OC : 0.707
